- System: PBCEC monolayer
- ASSAY_EXPLANATION: in vitro
- SETUP_CONDITIONS: 1 µM (760 pmol) apical, 48 h, n = 9
QUANTITY_MEASURED: amount transferred to the basolateral compartment after 48 h, of initially applied amount (%)
// note: answer is a bare numeric in %

## Input Would you kindly share the measured amount transferred to the basolateral compartment after 48 h, of initially applied amount for C[C@@H]1Cc2c(Cl)cc(C(=O)O)c(O)c2C(=O)O1 ?
## Output 19

## Input Same thing, different molecule: Cc1c(O)c(C(=O)O)c(O)c2c1[C@H](C)[C@@H](C)OC2=O [DHCIT, dihydrocitrinone]
## Output 14

## Input Same thing, different molecule: CC1=C2C(=CO[C@H](C)[C@H]2C)C(O)=C(C(=O)O)C1=O
## Output 40

## Input Same thing, different molecule: C[C@@H]1Cc2c(Cl)cc(C(=O)N[C@@H](Cc3ccccc3)C(=O)O)c(O)c2C(=O)O1
## Output 14

----------
- Tested on: PBCEC
- Type: cell-based, porcine
- SETUP_CONDITIONS: pig
QUANTITY_MEASURED: permeability pc (14C sucrose) after mycotoxin incubation

## Input Would you kindly share the measured permeability pc (14C sucrose) after mycotoxin incubation for C[C@@H]1Cc2c(Cl)cc(C(=O)N[C@@H](Cc3ccccc3)C(=O)O)c(O)c2C(=O)O1 ?
## Output 0.81 ± 0.17 10^−6 cm/s

## Input Same thing, different molecule: Cc1c(O)c(C(=O)O)c(O)c2c1[C@H](C)[C@@H](C)OC2=O [DHCIT, dihydrocitrinone]
## Output 0.38 ± 0.17 10^−6 cm/s

## Input Same thing, different molecule: CC1=C2C(=CO[C@H](C)[C@H]2C)C(O)=C(C(=O)O)C1=O
## Output 0.50 ± 0.33 10^−6 cm/s

## Input Same thing, different molecule: C[C@@H]1Cc2c(Cl)cc(C(=O)O)c(O)c2C(=O)O1
## Output 0.56 ± 0.24 10^−6 cm/s

----------
- Tested on: PBCEC monolayer
- Format: in vitro ADME, porcine
- SETUP_CONDITIONS: 200 nM in both compartments, without probenecid, n = 3
- Description: To analyse any active transport the mycotoxins were applied in the apical and basolateral compartments in equimolar concentrations of 200 nM. In a second set of experiments, 100 µM probenecid were added to both compartments 1 h before mycotoxin incubation in order to elucidate the effects of the OAT transport proteins. […] The mycotoxin concentrations were analysed as described above by HPLC-MS/MS. […]
QUANTITY_MEASURED: concentration in the basolateral compartment after 48 h (nM)
// note: answer is a bare numeric in nM

## Input Fill in the recorded concentration in the basolateral compartment after 48 h for this compound, with PBCEC monolayer as test system: CC1=C2C(=CO[C@H](C)[C@H]2C)C(O)=C(C(=O)O)C1=O
## Output 182

## Input Same thing, different compound: C[C@@H]1Cc2c(Cl)cc(C(=O)N[C@@H](Cc3ccccc3)C(=O)O)c(O)c2C(=O)O1
## Output 206

## Input Same thing, different compound: C[C@@H]1Cc2c(Cl)cc(C(=O)O)c(O)c2C(=O)O1
## Output 194

## Input Same thing, different compound: Cc1c(O)c(C(=O)O)c(O)c2c1[C@H](C)[C@@H](C)OC2=O [DHCIT, dihydrocitrinone]
## Output 186

----------
- ASSAY_EXPLANATION: in vitro
- SETUP_CONDITIONS: pig, cellular viability (dehydrogenase activity) compared to the negative control, 10 µM, 48 h, CCK-8, n = 18
QUANTITY_MEASURED: viability at 10 µM (%)
// note: answer is a bare numeric in %

## Input Would you kindly share the measured viability at 10 µM for C[C@@H]1Cc2c(Cl)cc(C(=O)O)c(O)c2C(=O)O1 ?
## Output 100

## Input Same thing, different compound: C[C@@H]1Cc2c(Cl)cc(C(=O)N[C@@H](Cc3ccccc3)C(=O)O)c(O)c2C(=O)O1
## Output 3

Recorded values, source paper PMC8147254.
